These measurements were taken from patent US20240059799A1.

- experimental-target: T1, recombinant human TL1A (human, UniProt O95150 71-251)
- T1 construct: homotrimer; biotinylated for SPR capture; the ELISA paragraphs say only 'recombinant TL1A'; also called TNFSF15
- T1 chain: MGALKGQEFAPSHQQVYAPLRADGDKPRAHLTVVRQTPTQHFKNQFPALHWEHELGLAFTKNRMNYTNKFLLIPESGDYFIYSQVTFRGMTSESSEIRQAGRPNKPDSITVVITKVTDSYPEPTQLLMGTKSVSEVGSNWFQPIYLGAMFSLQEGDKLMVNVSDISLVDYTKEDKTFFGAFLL
- experimental-details: competition ELISA vs bio-TL1A-0002
property: Bioactivity relative to TL1A-0002
Remember to quote the unit after the number.

Param item = TL1A-0080 (antibody, IgG1, V domains shown, IgG1/kappa variant of TL1A-0002) VH: QVQLVQSGAEVKKPGASVKVSCKASGYDFTYYGISWVRQAPGQGLEWMGWISTYGGNTHYARMLQGRVTMTTDTSTRTAYMELRSLRSDDTAVYYCARENYYGSGAYRGGMDVWGQGTTVTVSS VL: EIVLTQSPATLSLSPGERATLSCRASQSVSSYLAWYQQKPGQAPRLLIYDASNRATGIPARFSGSGSGTDFTLTISSLEPEDFAVYYCQQRSNWPWTFGQGTKVEIKR ; retrieve measured Bioactivity relative to TL1A-0002.
1.1 fold
